test system: NCI-H292 lung cancer cells; assay: FDA drug screening, complete media vs cholesterol-free media with simvastatin (TABLE 2); type: cell-based, human; settings: NCI-H292 cells, FDA drug library screen, cholesterol-free media with simvastatin 0.04 μM
Entries and their measured Cholesterol-free media + simvastatin (0.04 μM) follow.
metric name: Cholesterol-free media + simvastatin (0.04 μM)

- compound: "Cc1cccc(C)c1OCC(=O)N[C@@H](Cc1ccccc1)[C@@H](O)C[C@H](Cc1ccccc1)NC(=O)[C@H](C(C)C)N1CCCNC1=O [Lopinavir]"
  reported value: 1.549
- compound: "CCN1CCN(C(=O)N[C@@H](C(=O)N[C@@H]2C(=O)N3[C@@H]2SC(C)(C)[C@@H]3C(=O)[O-])c2ccccc2)C(=O)C1=O.[Na+] [Piperacillin (sodium)]"
  reported value: 2.325
- compound: "Clc1ccc(C(Cn2ccnc2)OCc2ccsc2Cl)c(Cl)c1 (stereo not drawn) [Tioconazole]"
  reported value: 0.669

Where these numbers come from: patent US20250144067A1
